Measured TGI of individual entries
Tested on: OVCAR-3 ovarian
protocol_summary: NCI tumour cell line growth inhibition, 48 h

Example entries and their recorded answers appear below.
>>> reported_measurement("CC(C)(O)CCc1cccc(C(=O)c2cnn(-c3ccc(F)cc3)c2N)c1")
"> 25 µM"
>>> reported_measurement("NCCCC(N=Cc1nc(-c2ccccc2)oc1O)C(=O)O (stereo not drawn)")
"> 100 µM"
>>> reported_measurement("Cn1cc(C2=C(c3cc[nH]c3)C(=O)NC2=O)c2ccccc21")
"> 25 µM"
>>> reported_measurement("c1ccc2c(c1)SP1Sc3ccccc3P21 (stereo not drawn)")
"> 100 µM"

Data request: Could you share which TGI value was measured for O=C(Cn1c2c(c3ccccc31)CCCC2)N1CCCCC1 ?
Data returned: > 100 µM

Data request: Param item: O=C(COC(=O)c1cccc2c(=O)c3ccccc3[nH]c12)Nc1ccc(Cl)cc1
Data returned: > 100 µM

Data request: Param item: COc1ccc(C2Oc3c(cccc3-c3c(-c4ccc(O)cc4)oc4cc(O)cc(O)c4c3=O)C(=O)C2O)cc1O (stereo not drawn)
Data returned: > 100 µM

Data request: Param item: C[C@]12CC(C=O)C(=O)C(O)=C1CC[C@@H]1C2CC[C@@]2(C)C1CC[C@]2(C)O (stereo partly drawn)
Data returned: 64.7 µM

Data request: Param item: C[C@H](c1ccccc1)n1c(N)c(-c2nc3ccccc3s2)c2ccc([N+](=O)[O-])cc2c1=O
Data returned: > 100 µM

Data request: Param item: CCCCCCCCCCCCCCCCCCOCC(C[N+]1(C)CCC(O)CC1)OCC (stereo not drawn)
Data returned: 15.4 µM

Data request: Param item: COc1cccc(N2CCN(c3ncnc4cc[nH]c34)CC2)c1
Data returned: > 100 µM

Data request: Param item: Cc1ccc2c(=O)c(-c3nnc(NC4CCCCC4)s3)c[nH]c2n1
Data returned: > 100 µM

Data request: Param item: CC(C)(C)n1c(=O)n(-c2ccccc2)n(C(C)(C)C)c1=O
Data returned: > 100 µM

Data request: Param item: COc1cc(NCCC(=O)O)c2ncccc2c1
Data returned: > 100 µM

Data request: Param item: Cc1ccc(-c2c3c(nn2-c2ccc(S(=O)(=O)NC(=O)NC4CCCCC4)cc2)-c2ccccc2C3)cc1
Data returned: 35.7 µM

Data request: Param item: CC(NP(=O)(c1ccccc1)c1ccccc1)c1ccccc1 (stereo not drawn)
Data returned: > 100 µM
